B1: SETD8 (parent)
chain: GKQAPRKKAQGKTQQNRKLTDFYP

variants of: B1; assay: protein stability index of a GFP-peptide fusion (GPS, HEK-293T) (PSI 1-6); higher = more stable; settings: c terminus: a fixed tail appended;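 also: lentivirally expressed fusions sorted by FACS into six bins by GFP to DsRed ratio, PSI derived from sequencing read proportions per bin multiplied by bin number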
PROPERTY NAME: protein stability index
No unit in the answer, please; the number alone is enough.

Example entries and their recorded answers appear below.
Looking up P24M , I see its protein stability index listed as 4.09

The variant identified as K8N registered its protein stability index at 2.77

Summary for this variant, G11M : protein stability index is 3.29

Further cases:
R6P has a reported protein stability index of 4.13

Short answer for K7Q : protein stability index was 3.96

Reported protein stability index of P24Y : 2.73
